Just for reference, paper PMC8551653 is where these values come from.

# assay system: ERβ(W335A) (Homo sapiens, UniProt Q92731, W335A)
# Sequence (Q92731 263-530 W335A): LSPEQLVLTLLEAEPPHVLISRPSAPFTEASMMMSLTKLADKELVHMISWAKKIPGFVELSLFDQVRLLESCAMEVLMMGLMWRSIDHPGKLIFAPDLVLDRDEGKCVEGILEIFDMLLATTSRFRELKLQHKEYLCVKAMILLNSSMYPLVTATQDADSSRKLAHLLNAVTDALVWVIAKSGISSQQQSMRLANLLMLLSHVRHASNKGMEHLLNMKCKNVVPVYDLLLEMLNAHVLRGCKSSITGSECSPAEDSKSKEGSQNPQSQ
# test description: Competitive binding assay for ERβ(W335A)
readout: IC50 (nM)
The response must be a number in nM with no trailing unit.

Qu. Would you mind telling me what IC50 value was observed for "Oc1ccc(C(=C(Cl)Cl)c2ccc(O)cc2)cc1" ?
Ans. 691

###

# assay system: ERβ (Homo sapiens)
# test description: Radioligand competitive binding assay with [3H]E2 for ERβ (GST-ERβ-LBD)
# Parameters: made in house; host or cells: Escherichia coli BL21α
# Sequence (Q92731 263-530): as the sequence (Q92731 263-530 W335A) above, with A73W counted along it
The threshold is 400 nM. Values of IC50 beneath it are tagged Satisfied; values meeting or exceeding it are tagged Not satisfied.

// below: answered compounds
compound=Nc1ccc(Oc2ccc(C(c3ccc(Oc4ccc(N)cc4)cc3)(C(F)(F)F)C(F)(F)F)cc2)cc1 label_class="Not satisfied"
compound=CC(C)(c1ccc(O)cc1)c1ccc(C(C)(c2ccc(O)cc2)c2ccc(O)cc2)cc1 label_class=Satisfied

Qu. Does the reported IC50 of the following compound sit strictly below 400 nM? Oc1ccc(C2(c3ccc(O)cc3)c3ccccc3-c3ccccc32)cc1 [Compound 14, 9,9-Bis(4-hydroxyphenyl)fluorene]
Ans. Satisfied

Qu. How about this compound: "Oc1ccc(C(=C(Cl)Cl)c2ccc(O)cc2)cc1"
Ans. Satisfied

Qu. How about this compound: "CC(C)(c1ccc(O)cc1)c1cccc(C(C)(C)c2ccc(O)cc2)c1"
Ans. Satisfied

Qu. How about this compound: "CCC(C)(c1ccc(O)cc1)c1ccc(O)cc1"
Ans. Satisfied

Qu. How about this compound: "CC(C)(c1ccc(O)cc1)c1ccc(C(C)(C)c2ccc(O)cc2)cc1"
Ans. Not satisfied

Qu. How about this compound: "Oc1ccc(C2(c3ccc(O)cc3)CCCCC2)cc1"
Ans. Satisfied

###

# assay system: ERβ (Homo sapiens, UniProt Q92731)
# test description: Luciferase reporter gene assay in HeLa cells, agonistic activity
# Assay type: cell-based
# Design: expressed in transfected cells; host or cells: HeLa
# experimental context: HeLa cells, WT ERβ
# Sequence (Q92731 whole entry, the tested form may be a part): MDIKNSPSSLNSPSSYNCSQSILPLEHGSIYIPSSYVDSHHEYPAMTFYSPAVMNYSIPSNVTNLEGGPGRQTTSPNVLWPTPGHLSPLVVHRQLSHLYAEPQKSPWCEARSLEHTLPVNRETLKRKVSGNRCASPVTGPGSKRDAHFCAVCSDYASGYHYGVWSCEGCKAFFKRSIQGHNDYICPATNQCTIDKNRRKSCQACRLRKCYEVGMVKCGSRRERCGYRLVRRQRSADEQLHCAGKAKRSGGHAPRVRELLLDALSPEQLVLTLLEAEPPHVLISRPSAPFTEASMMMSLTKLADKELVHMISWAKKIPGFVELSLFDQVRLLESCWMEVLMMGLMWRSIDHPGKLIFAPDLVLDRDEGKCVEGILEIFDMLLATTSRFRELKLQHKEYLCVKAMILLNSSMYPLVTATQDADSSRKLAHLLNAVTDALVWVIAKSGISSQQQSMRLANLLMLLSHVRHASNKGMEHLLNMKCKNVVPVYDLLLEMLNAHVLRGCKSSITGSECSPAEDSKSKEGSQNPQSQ
readout: ERβ agonist activity (in words)

compound=Cc1cc(C(C)(C)c2ccc(C(C)(C)c3cc(C)c(O)c(C)c3)cc2)cc(C)c1O assay_system="ERβ (Homo sapiens, UniProt Q92731)" readout="ERβ agonist activity (in words)" experimental_value="no agonist activity"
compound=CC(C)(c1ccc(O)cc1)c1cccc(C(C)(C)c2ccc(O)cc2)c1 assay_system="ERβ (Homo sapiens, UniProt Q92731)" readout="ERβ agonist activity (in words)" experimental_value="no agonist activity"
compound="CCCCC(CC)C(c1ccc(O)cc1)c1ccc(O)cc1 (centres unmarked)" assay_system="ERβ (Homo sapiens, UniProt Q92731)" readout="ERβ agonist activity (in words)" experimental_value="no agonist activity"
compound=CC(C)(c1ccc(O)cc1)c1ccc(C(C)(c2ccc(O)cc2)c2ccc(O)cc2)cc1 assay_system="ERβ (Homo sapiens, UniProt Q92731)" readout="ERβ agonist activity (in words)" experimental_value="no agonist activity"
compound=CC(C)(c1ccc(O)cc1)c1ccc(C(C)(C)c2ccc(O)cc2)cc1 assay_system="ERβ (Homo sapiens, UniProt Q92731)" readout="ERβ agonist activity (in words)" experimental_value="no agonist activity"

Moving on to the next compound.
Qu. Would you mind telling me what ERβ agonist activity (in words) value was observed for "Cc1cc(C(c2ccccc2O)c2cc(C)c(O)c(C)c2C)c(C)c(C)c1O" ?
Ans. no agonist activity
